targetEntity: dihydrolipoamide acyltransferase (DlaT) (Mycobacterium tuberculosis)
Sequence (P9WIS7 1-553): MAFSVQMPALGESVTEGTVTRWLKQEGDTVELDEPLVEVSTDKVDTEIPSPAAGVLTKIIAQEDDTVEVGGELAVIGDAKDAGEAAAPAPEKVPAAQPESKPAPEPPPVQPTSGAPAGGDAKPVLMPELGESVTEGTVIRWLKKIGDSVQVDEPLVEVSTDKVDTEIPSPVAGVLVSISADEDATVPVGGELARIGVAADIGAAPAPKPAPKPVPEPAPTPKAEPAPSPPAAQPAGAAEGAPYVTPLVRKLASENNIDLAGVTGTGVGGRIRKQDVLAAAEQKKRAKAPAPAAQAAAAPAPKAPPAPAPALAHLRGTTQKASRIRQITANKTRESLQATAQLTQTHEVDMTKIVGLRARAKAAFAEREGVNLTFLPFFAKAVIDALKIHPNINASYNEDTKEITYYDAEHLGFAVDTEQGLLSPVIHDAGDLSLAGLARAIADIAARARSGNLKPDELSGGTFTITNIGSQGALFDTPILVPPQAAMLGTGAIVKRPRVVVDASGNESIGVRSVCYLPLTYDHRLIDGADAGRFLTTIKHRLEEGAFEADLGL
protocolDetails: DlaT inhibition (Dlat IC50); DTNB peroxidase assay with Lpd, DlaT and AhpD
Format: biochemical
runParameters: Table 1, Compounds A1 to A294; read-out: Dlat IC50 category
pIC50: −log10 of the molar value.

| smilesEntry | pIC50 |
| --- | --- |
| O=C(O)c1cccc(N2C(=O)C(=Cc3ccc(-c4ccc(F)cc4F)o3)SC2=S)c1 | > 5.00 |
| O=C1C(=Cc2ccc(-c3ccc(Cl)cc3)o2)SC(=S)N1c1ccc(O)cc1 | > 5.00 |
| CC(=O)Nc1ccc(-c2ccc(C=C3SC(=S)N(c4ccc(F)c(C(=O)O)c4)C3=O)o2)cc1 | 4.40 to 4.96 |
| O=C(O)c1ccc(F)c(N2C(=O)C(=Cc3ccc(-c4ccc(OCc5ccccc5)cc4)o3)SC2=S)c1 | 4.40 to 4.96 |
| CC(C)Oc1ccc(-c2ccc(C=C3SC(=S)N(c4cccc(C(=O)O)c4)C3=O)o2)cc1 | > 5.00 |
| CNS(=O)(=O)c1ccc(-c2ccc(C=C3SC(=S)N(c4cccc(C(=O)O)c4)C3=O)o2)cc1 | 4.40 to 4.96 |
| Cc1cc(C)c(-c2ccc(C=C3SC(=S)N(c4cccc(C(=O)O)c4)C3=O)o2)c(C)c1 | 4.40 to 4.96 |
| N#Cc1c(F)cccc1-c1ccc(C=C2SC(=S)N(c3cccc(C(=O)O)c3)C2=O)o1 | 4.40 to 4.96 |
| O=C(O)c1ccc(N2C(=O)C(=Cc3ccc(-c4ccccc4Cl)o3)SC2=S)cc1 | < 4.39 |
| COc1ccc(-c2ccc(C=C3SC(=S)N(c4cc(C(=O)O)ccc4F)C3=O)o2)cc1 | > 5.00 |
| NS(=O)(=O)c1ccc(N2C(=O)C(=Cc3ccc(-c4cccc(Cl)c4)o3)SC2=S)cc1 | 4.40 to 4.96 |
| COc1ccccc1-c1ccc(C=C2SC(=S)N(c3cc(C(=O)O)ccc3F)C2=O)o1 | > 5.00 |
| O=C(O)c1cc(N2C(=O)C(=Cc3ccc(-c4ccccc4Oc4ccccc4)o3)SC2=S)ccc1F | > 5.00 |

----------
targetEntity: dihydrolipoamide acyltransferase (DlaT) (Mycobacterium tuberculosis)
protocolDetails: DlaT inhibition (Dlat IC50); DTNB peroxidase assay with Lpd, DlaT and AhpD
Type: biochemical
runParameters: Table 1, Compounds A1 to A294; read-out: Dlat IC50 category
pIC50: −log10 of the molar value.

| smilesEntry | pIC50 |
| --- | --- |
| COc1ccccc1-c1ccc(C=C2SC(=S)N(c3cc(C(=O)O)ccc3Cl)C2=O)o1 | > 5.00 |
| CC(C)c1cccc(-c2ccc(C=C3SC(=S)N(c4ccc(O)c(C(=O)O)c4)C3=O)o2)c1 | > 5.00 |
| O=C(O)c1ccc(F)c(N2C(=O)C(=Cc3ccc(-c4ccc(F)cc4)o3)SC2=S)c1 | > 5.00 |

----------
Measured IC50 of individual entries
targetEntity: dihydrolipoamide acyltransferase (DlaT) (Mycobacterium tuberculosis, UniProt P9WIS7)
Sequence (P9WIS7 1-553): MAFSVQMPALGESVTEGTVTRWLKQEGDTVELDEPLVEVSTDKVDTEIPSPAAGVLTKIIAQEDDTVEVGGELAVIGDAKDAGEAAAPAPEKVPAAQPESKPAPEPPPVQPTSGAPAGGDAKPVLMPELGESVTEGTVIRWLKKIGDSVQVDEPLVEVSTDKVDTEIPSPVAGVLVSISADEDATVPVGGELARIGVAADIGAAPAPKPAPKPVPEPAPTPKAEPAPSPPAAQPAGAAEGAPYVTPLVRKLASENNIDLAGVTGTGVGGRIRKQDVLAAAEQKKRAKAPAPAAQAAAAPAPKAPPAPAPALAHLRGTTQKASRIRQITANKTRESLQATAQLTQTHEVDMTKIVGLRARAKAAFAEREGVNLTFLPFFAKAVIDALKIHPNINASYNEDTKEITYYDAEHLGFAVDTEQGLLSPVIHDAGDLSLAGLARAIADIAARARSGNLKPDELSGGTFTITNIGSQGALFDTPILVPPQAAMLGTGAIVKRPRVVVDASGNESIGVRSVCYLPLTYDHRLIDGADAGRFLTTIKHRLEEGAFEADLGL
protocolDetails: DlaT inhibition (Dlat IC50); DTNB peroxidase assay with Lpd, DlaT and AhpD
Assay type: biochemical
runParameters: Table 1, Compounds A1 to A294; read-out: Dlat IC50 category

| smilesEntry | targetEntity | IC50 |
| --- | --- | --- |
| O=C(O)c1ccc(F)c(N2C(=O)C(=Cc3ccc(-c4ccccc4Cl)o3)SC2=S)c1 | dihydrolipoamide acyltransferase (DlaT) (Mycobacterium tuberculosis, UniProt P9WIS7) | < 10 µM |
| O=C(O)c1cccc(N2C(=O)C(=Cc3ccc(-c4ccc(OCc5ccccc5)cc4)o3)SC2=S)c1 | dihydrolipoamide acyltransferase (DlaT) (Mycobacterium tuberculosis, UniProt P9WIS7) | 11 to 40 µM |
| CCc1ccccc1-c1ccc(C=C2SC(=S)N(c3cccc(C(=O)O)c3)C2=O)o1 | dihydrolipoamide acyltransferase (DlaT) (Mycobacterium tuberculosis, UniProt P9WIS7) | < 10 µM |
| O=C(O)c1ccc(F)c(N2C(=O)C(=Cc3ccc(-c4ccc(Cl)c(Cl)c4)o3)SC2=S)c1 | dihydrolipoamide acyltransferase (DlaT) (Mycobacterium tuberculosis, UniProt P9WIS7) | < 10 µM |
| COc1ccc(C(=O)O)cc1N1C(=O)C(=Cc2ccc(-c3cccc(C(F)(F)F)c3)o2)SC1=S | dihydrolipoamide acyltransferase (DlaT) (Mycobacterium tuberculosis, UniProt P9WIS7) | < 10 µM |
| NS(=O)(=O)c1ccc(N2C(=O)C(=Cc3ccc(-c4ccc(Cl)c(Cl)c4)o3)SC2=S)cc1 | dihydrolipoamide acyltransferase (DlaT) (Mycobacterium tuberculosis, UniProt P9WIS7) | 11 to 40 µM |
| Cc1cc(N(C)C)ccc1-c1ccc(C=C2SC(=S)N(c3cccc(C(=O)O)c3)C2=O)o1 | dihydrolipoamide acyltransferase (DlaT) (Mycobacterium tuberculosis, UniProt P9WIS7) | < 10 µM |

----------
targetEntity: UniProt P9WIS7
Sequence (P9WIS7 1-553): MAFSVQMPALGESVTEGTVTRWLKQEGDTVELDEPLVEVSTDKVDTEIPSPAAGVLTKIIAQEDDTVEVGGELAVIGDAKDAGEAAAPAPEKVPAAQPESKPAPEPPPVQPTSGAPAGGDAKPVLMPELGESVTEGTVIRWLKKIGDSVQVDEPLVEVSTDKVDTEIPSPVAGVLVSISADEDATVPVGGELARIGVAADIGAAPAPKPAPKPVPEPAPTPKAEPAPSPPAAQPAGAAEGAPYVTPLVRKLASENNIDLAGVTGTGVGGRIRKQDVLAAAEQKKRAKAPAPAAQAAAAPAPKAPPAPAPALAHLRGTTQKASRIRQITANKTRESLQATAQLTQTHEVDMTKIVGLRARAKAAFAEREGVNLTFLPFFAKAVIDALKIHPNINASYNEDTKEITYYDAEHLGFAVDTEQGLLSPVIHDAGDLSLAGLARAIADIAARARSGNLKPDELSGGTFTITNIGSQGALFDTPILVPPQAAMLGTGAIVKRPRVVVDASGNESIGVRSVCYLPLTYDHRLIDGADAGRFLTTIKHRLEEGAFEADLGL
protocolDetails: DlaT inhibition (Dlat IC50); DTNB peroxidase assay with Lpd, DlaT and AhpD
Type: biochemical
runParameters: Dlat IC50 category
pIC50: −log10 of the molar value.

| molecule | pIC50 |
| --- | --- |
| O=C(O)c1cccc(NN2C(=O)C(=Cc3ccc(-c4ccc(Cl)cc4)o3)SC2=S)c1 [Compound D18] | > 5.00 |
| CC(C)c1ccc(-c2ccc(C=C3SC(=S)N(CC(=O)O)C3=O)o2)cc1 [Compound B70] | 4.40 to 4.96 |
| CC(C)Cc1ccc(-c2ccc(C=C3SC(=S)N(C4CCCC(C(=O)O)C4)C3=O)o2)cc1 (stereo not shown) [Compound C4] | > 5.00 |
| O=C(O)C(Cc1ccc(O)cc1)N1C(=O)C(=Cc2ccc(-c3cc(Cl)ccc3Cl)o2)SC1=S (stereo not shown) [Compound B62] | > 5.00 |
| Cc1cc(C)c(-c2ccc(C=C3SC(=S)N(Nc4ccccc4C(=O)O)C3=O)o2)c(C)c1 [Compound D28] | > 5.00 |
| CCOc1ccc(-c2ccc(C=C3SC(=S)N(C4CCCC(C(=O)O)C4)C3=O)o2)cc1 (stereo not shown) [Compound C51] | > 5.00 |
| O=C(O)C(c1ccccc1)N1C(=O)C(=Cc2ccc(-c3ccccc3Cl)o2)SC1=S (stereo not shown) [Compound B1] | > 5.00 |
| CCc1ccc(-c2ccc(C=C3SC(=S)N(Nc4ccccc4C(=O)O)C3=O)o2)cc1 [Compound D38] | > 5.00 |
| CC(=O)c1ccc(-c2ccc(C=C3SC(=S)N(Nc4ccccc4C(=O)O)C3=O)o2)cc1 [Compound D42] | > 5.00 |
| CC(C(=O)O)N1C(=O)C(=Cc2ccc(-c3ccccc3C(F)(F)F)o2)SC1=S (stereo not shown) [Compound B99] | 4.40 to 4.96 |
